Biological target: delF508-CFTR (Homo sapiens, UniProt P13569, DEL508-508)
Construct: Unaltered CFBE41o− cells were used as the model; endogenous in cells
Sequence (P13569 with tags, fused parts or gaps DEL508-508): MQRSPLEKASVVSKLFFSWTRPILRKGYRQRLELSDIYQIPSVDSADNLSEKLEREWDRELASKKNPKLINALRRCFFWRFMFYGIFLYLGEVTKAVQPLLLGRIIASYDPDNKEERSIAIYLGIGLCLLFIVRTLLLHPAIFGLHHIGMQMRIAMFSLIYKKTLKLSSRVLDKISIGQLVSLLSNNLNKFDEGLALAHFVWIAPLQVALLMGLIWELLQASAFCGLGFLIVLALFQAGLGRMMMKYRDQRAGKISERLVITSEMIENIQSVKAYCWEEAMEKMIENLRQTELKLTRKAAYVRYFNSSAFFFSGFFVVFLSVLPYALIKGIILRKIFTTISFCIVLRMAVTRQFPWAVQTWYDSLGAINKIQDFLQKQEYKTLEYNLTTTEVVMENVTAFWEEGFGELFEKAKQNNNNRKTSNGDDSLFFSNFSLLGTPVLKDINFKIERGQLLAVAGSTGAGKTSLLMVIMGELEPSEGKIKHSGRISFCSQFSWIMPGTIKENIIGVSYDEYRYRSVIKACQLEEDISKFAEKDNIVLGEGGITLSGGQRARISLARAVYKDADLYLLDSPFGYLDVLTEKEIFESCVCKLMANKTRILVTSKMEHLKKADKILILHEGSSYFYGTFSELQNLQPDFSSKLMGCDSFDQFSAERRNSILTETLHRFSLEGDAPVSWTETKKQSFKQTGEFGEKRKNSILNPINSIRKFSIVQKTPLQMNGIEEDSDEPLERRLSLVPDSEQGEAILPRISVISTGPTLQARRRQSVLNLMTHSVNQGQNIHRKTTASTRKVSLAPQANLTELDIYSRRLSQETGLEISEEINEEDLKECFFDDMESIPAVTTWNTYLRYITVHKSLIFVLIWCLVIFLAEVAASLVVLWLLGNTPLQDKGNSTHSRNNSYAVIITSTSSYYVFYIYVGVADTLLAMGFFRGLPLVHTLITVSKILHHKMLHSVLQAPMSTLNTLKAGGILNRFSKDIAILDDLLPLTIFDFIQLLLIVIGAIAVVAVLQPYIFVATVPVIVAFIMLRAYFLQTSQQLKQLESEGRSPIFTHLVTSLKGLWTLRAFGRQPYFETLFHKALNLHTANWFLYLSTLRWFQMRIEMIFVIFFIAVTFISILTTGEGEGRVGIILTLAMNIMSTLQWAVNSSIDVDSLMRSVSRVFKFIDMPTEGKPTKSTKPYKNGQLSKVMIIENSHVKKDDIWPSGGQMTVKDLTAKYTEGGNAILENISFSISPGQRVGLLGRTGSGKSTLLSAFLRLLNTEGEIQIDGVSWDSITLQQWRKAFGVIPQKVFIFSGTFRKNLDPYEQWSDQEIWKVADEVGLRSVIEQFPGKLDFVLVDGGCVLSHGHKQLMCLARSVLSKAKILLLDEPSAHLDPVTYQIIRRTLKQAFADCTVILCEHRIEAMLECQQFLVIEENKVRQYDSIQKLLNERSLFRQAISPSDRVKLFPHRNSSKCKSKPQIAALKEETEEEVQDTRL
Assay: SPQ halide-sensitive fluorescence dye profiling assay (rescue of halide efflux)
Settings: SPQ assay, 8-point concentration-response curve, CFBE41o− cells
The entries below are paired with their reported EC50.
Field format: number, assumed nM, no unit text.

These recorded examples may help you get a feel for the data.
| molecule | output-unit | EC50 |
| --- | --- | --- |
| CCS(=O)(=O)Cc1nnc2c(-c3ccc(Cl)c(Cl)c3)c(C)nn2c1C [Compound C-71] | nM | 6900 |
| Cc1nn2c(C)c(-c3nnco3)nnc2c1-c1ccc(Cl)c(Cl)c1 [Compound C-43] | nM | 11000 |
| Cc1nn2c(C)c(C(=O)OC3CCCC3)nnc2c1-c1ccc(Cl)c(Cl)c1 [Compound C-50] | nM | 500 |
| Cc1nn2c(C)c(C(=O)OC(C)C)nnc2c1-c1ccc(Cl)c(Cl)c1 [Compound C-49] | nM | 2000 |
| Cc1nn2c(C)c(C(=O)O)nnc2c1-c1ccc(Cl)cc1 [Compound C-1] | nM | 1900 |

Measured EC50 (delF508-CFTR (Homo sapiens, UniProt P13569, DEL508-508)), entry Cc1nn2c(C)c(C(=O)NS(C)(=O)=O)nnc2c1-c1ccc(Cl)c(Cl)c1 [Compound C-36] : 4800

Reading of EC50 for CCS(=O)(=O)NC(=O)c1nnc2c(-c3ccc(Cl)c(Cl)c3)c(C)nn2c1C [Compound C-37] with delF508-CFTR (Homo sapiens, UniProt P13569, DEL508-508): 5100

Sample CCCOC(=O)c1nnc2c(-c3ccc(Cl)cc3)c(C)nn2c1C [Compound C-20] , system: delF508-CFTR (Homo sapiens, UniProt P13569, DEL508-508). Its EC50 is 2000

For the molecule Cc1nn2c(C)c(C(=O)OC(C)C)nnc2c1-c1ccc(Cl)cc1 [Compound C-21] , the measured EC50 on delF508-CFTR (Homo sapiens, UniProt P13569, DEL508-508) was 1100

* * *

Target: delF508-CFTR (Homo sapiens, UniProt P13569, DEL508-508)
Construct: Unaltered CFBE41o− cells were used as the model; endogenous in cells; host or cells: CFBE41o- human CF bronchial epithelial cells (delF508 homozygous, not overexpressing)
Assay: SPQ halide-sensitive fluorescence dye profiling assay (rescue of halide efflux)
Assay type: cell-based
Conditions: compared to VX-809 at 3 μM
measurement-type: Efficacy Comparison to 3 μM VX-809

Solved entries (count: 5):
| molecule | measurement-type | value-measured |
| --- | --- | --- |
| CCOC(=O)c1nnc2c(-c3ccc(OC)c(OC)c3)c(C)nn2c1C [Compound C-16] | Efficacy Comparison to 3 μM VX-809 | 2-fold greater than VX-809 |
| Cc1nn2c(C)c(C(=O)O)nnc2c1-c1ccc(OC(C)(C)C)cc1 [Compound C-56] | Efficacy Comparison to 3 μM VX-809 | Less than VX-809 |
| Cc1nn2c(C)c(C(=O)O)nnc2c1-c1ccc(F)c(F)c1 [Compound C-23] | Efficacy Comparison to 3 μM VX-809 | Equivalent to VX-809 |
| Cc1nn2c(C)c(C(=O)O)nnc2c1-c1ccc(O)cc1 [Compound C-9] | Efficacy Comparison to 3 μM VX-809 | Less than VX-809 |
| CCOC(=O)c1nnc2c(-c3ccc(Cl)c(Cl)c3)c(C)nn2c1C [Compound C-15] | Efficacy Comparison to 3 μM VX-809 | 10-fold greater than VX-809 |

# molecule Cc1nn2c(C)c(C(=O)C(=O)O)nnc2c1-c1ccc(Cl)c(Cl)c1 [Compound C-32] ; its Efficacy Comparison to 3 μM VX-809 = 2.5-fold greater than VX-809

So, Cc1nn2c(C)c(-c3nnco3)nnc2c1-c1ccc(Cl)c(Cl)c1 [Compound C-43] ? Its Efficacy Comparison to 3 μM VX-809 was Equivalent to VX-809

Efficacy Comparison to 3 μM VX-809 for Cc1nn2c(C)c(C(=O)O)cnc2c1-c1ccc(Cl)c(Cl)c1 [Compound C-45] is Equivalent to VX-809

The molecule listed as Cc1nn2c(N)c(C(=O)O)nnc2c1-c1ccc(Cl)c(Cl)c1 [Compound C-25] shows Efficacy Comparison to 3 μM VX-809 equal to 10-fold greater than VX-809

Just for reference, patent US9676779B2 is where these values come from.
